All values here come from ChEMBL document CHEMBL1909046.

- targetUnderTest: Melanocortin receptor 5 (Homo sapiens, UniProt P33032); further: in other assays of this panel Not Active means under 50% inhibition at 10 µM
- Sequence (P33032 whole entry): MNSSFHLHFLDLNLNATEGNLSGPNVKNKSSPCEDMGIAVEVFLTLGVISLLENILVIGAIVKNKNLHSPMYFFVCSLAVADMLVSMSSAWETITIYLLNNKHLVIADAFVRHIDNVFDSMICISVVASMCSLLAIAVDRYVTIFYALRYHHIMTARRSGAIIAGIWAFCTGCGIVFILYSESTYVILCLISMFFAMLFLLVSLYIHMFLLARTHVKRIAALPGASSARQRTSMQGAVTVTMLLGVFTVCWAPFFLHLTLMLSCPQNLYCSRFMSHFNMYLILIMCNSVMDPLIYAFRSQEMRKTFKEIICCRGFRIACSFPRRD
- Format: cell membranes, HEK293, Membrane
- settings: hek293; read-out: IC50
testReadout: IC50

// IC50 lookup, sequence = COLISTIN , result: 0.266 µM

###

- procedureText: DRUGMATRIX: Glutamate, NMDA, Phencyclidine radioligand binding (ligand: [3H] TCP)
- Assay type: cell membranes, Rattus norvegicus, Wistar, Cerebral cortex, Membrane
- settings: Not Active = under 50% inhibition at 10 µM; read-out: IC50
testReadout: IC50

// IC50 value for NC12CC3CC(CC(C3)C1)C2 [AMANTADINE] : 32 µM
